- ASSAY_NAME: Consumption of 4HNE over time (HPLC, 254 nm)
- TEST_CONTEXT: 23 h
- Text: 5 of 6 samples show consumption of 4HNE. One sample (2-(3-aminoquinolin-2-yl)propan-2-ol) overlaps 4HNE HPLC peak using current method. Best fit lines over this period give poorer fit to data than product formation data. Rate of 4HNE consumption can be used as an approximation of binding kinetics. […] The data were used to rank relatively each of the samples examined, including NS-2 but excluding 2-(3-aminoquinolin-2-yl)propan-2-ol.
VALUE_KIND: Gradient of 4HNE consumption

>>> endpoint_result("CC(C)(O)c1nc2cccc(Cl)c2cc1N")
"(Gradient −0.04,"
>>> endpoint_result("CC(C)(O)c1nc2ccc(Br)cc2cc1N")
"(Gradient −0.04,"
>>> endpoint_result("CC(C)(O)c1nc2ccc(Cl)cc2cc1N")
"(Gradient −0.04,"

Source of measurements: patent US20180250306A1
